B1: CDKN1A (parent)
chain: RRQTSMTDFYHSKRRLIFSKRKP

# Variants of: B1
# EXPERIMENT DESCRIPTION: protein stability index of a GFP-peptide fusion (GPS, HEK-293T) (PSI 1-6); higher = more stable;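 further: lentivirally expressed fusions sorted by FACS into six bins by GFP to DsRed ratio, PSI derived from sequencing read proportions per bin multiplied by bin number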
# MEASUREMENT CONDITIONS: c terminus: native
ASSAY METRIC: protein stability index
Give bare numbers.

Task item: State the recorded protein stability index for this entry: NRQTSMTDFYHSKRRLIFSKRKP [R1N]
Reply: 2.77

Here are 7 variants. What values of protein stability index were reported for them?
1. RRQTSFTDFYHSKRRLIFSKRKP [M6F]
2. RRQTSMTDFYHSKIRLIFSKRKP [R14I]
3. RRQTGMTDFYHSKRRLIFSKRKP [S5G]
4. RRQTSMTDFEHSKRRLIFSKRKP [Y10E]
5. RRQTSMTDFYHSKRRLICSKRKP [F18C]
6. RRQTSMTDFYHSLRRLIFSKRKP [K13L]
7. RRQTSMTDFYHSKRRLIFDKRKP [S19D]

Reply:
1: 2.03; 2: 2.18; 3: 3.9; 4: 2.83; 5: 1.69; 6: 2.51; 7: 1.43

// input: 7 variants below; output: protein stability index for each
1. RSQTSMTDFYHSKRRLIFSKRKP [R2S]
2. RRQTSMWDFYHSKRRLIFSKRKP [T7W]
3. RRQTSMTDFYHSKRRLIFSKRKY [P23Y]
4. RRQTSMKDFYHSKRRLIFSKRKP [T7K]
5. RRQTSMTDFYHSKRRLIFQKRKP [S19Q]
6. RRQTSMTDFYHSKRRLIWSKRKP [F18W]
7. RRQTSMTDRYHSKRRLIFSKRKP [F9R]

Reply:
1: 1.11; 2: 1.87; 3: 3.15; 4: 2.19; 5: 2.08; 6: 2.28; 7: 2.54

# per-item lookup of protein stability index; items listed below
1. RRQTEMTDFYHSKRRLIFSKRKP [S5E]
2. IRQTSMTDFYHSKRRLIFSKRKP [R1I]
3. RRQTSMTDFYHSKRRLLFSKRKP [I17L]
4. RRQTTMTDFYHSKRRLIFSKRKP [S5T]
5. RRQESMTDFYHSKRRLIFSKRKP [T4E]

Reply:
[2.5, 1.98, 3.47, 2.38, 3.64]

Below are some variants; for each one, tell me its protein stability index.
1. RRQTSMTLFYHSKRRLIFSKRKP [D8L]
2. RIQTSMTDFYHSKRRLIFSKRKP [R2I]
3. RRQTSMTDFYHSKRRLIISKRKP [F18I]
4. RRQTSMTDFYHSPRRLIFSKRKP [K13P]
5. RRQTSMTDFWHSKRRLIFSKRKP [Y10W]
6. RRQTHMTDFYHSKRRLIFSKRKP [S5H]
7. RRQTSMTDFYHSKRRLYFSKRKP [I17Y]

Reply:
2.32
2.89
2.23
3.13
2.66
3.12
2.76

Data origin: the supplement of paper PMC10567573
